In this section, each of the molecules is paired with its reported selectivity ratio.
# assay.explanation: Selectivity index, ratio of CC50 for human MT4 cells to EC50 for wild type HIV1 3B infected in human MT4 cells
# Assay type: toxicity, cell-based
# experimental.conditions: read-out: Ratio CC50/EC50

smiles.repr	selectivity ratio
Cc1cc(C)cc(S(=O)(=O)Nc2ccnc(Nc3ccc(C#N)cc3)c2)c1	< 1
N#Cc1ccc(Nc2cc(NS(=O)(=O)c3cc(F)cc(F)c3)ccn2)cc1	< 1
CC(C)c1cc(C(C)C)c(S(=O)(=O)Nc2ccnc(Nc3ccc(C#N)cc3)c2)c(C(C)C)c1	< 1
N#Cc1ccc(Nc2cc(NS(=O)(=O)c3ccc(C(F)(F)F)cc3)ccn2)cc1	< 1
Nc1ccn([C@@H]2CS[C@H](CO)O2)c(=O)n1	> 34
Cc1cc(C)c(S(=O)(=O)Nc2ccnc(Nc3ccc(C#N)cc3)n2)c(C)c1	< 1

###

# assay.explanation: Cytotoxicity against human MT4 cells assessed as reduction in cell viability after 5 days by MTT assay
# Type: cell-based
Output fulfilled for records whose CC50 at 120 h is lower than 5 µM, not fulfilled for records at or above 5 µM.

molecule	class.label
O=c1[nH]cnc2c1ncn2[C@H]1CC[C@@H](CO)O1 [DIDANOSINE]	not fulfilled
N#Cc1ccc(Nc2nccc(NS(=O)(=O)c3ccc(F)cc3)n2)cc1	not fulfilled
Cc1cc(C#N)cc(C)c1Oc1nc(Nc2ccc(C#N)cc2)nc(N)c1Br [ETRAVIRINE]	fulfilled
Cc1ccc(S(=O)(=O)Nc2ccnc(Nc3ccc(C#N)cc3)c2)cc1	not fulfilled
CC(C)c1cc(C(C)C)c(S(=O)(=O)Nc2ccnc(Nc3ccc(C#N)cc3)c2)c(C(C)C)c1	not fulfilled

###

# System: Human immunodeficiency virus 1
# assay.explanation: Antiviral activity against HIV1 RES056 harboring reverse transcriptase K103N/Y181C double mutant infected in human MT4 cells assessed as inhibition of virus-induced cytopathic effect after 5 days by MTT assay
# Format: functional, cell-based
Calls of active or inactive are those of the source. No cut-off for these calls is given here.

smiles.repr	inhibition
N#Cc1ccc(Nc2cc(NS(=O)(=O)c3cc(C(F)(F)F)cc(C(F)(F)F)c3)ccn2)cc1	inactive
Cc1cc(C)cc(S(=O)(=O)Nc2ccnc(Nc3ccc(C#N)cc3)c2)c1	inactive
CC(C)(C)c1ccc(S(=O)(=O)Nc2ccnc(Nc3ccc(C#N)cc3)c2)cc1	inactive
N#Cc1ccc(Nc2cc(NS(=O)(=O)c3ccc(F)cc3)ccn2)cc1	inactive
Cc1ccc(S(=O)(=O)Nc2ccnc(Nc3ccc(C#N)cc3)c2)cc1	inactive
CC(C)c1cc(C(C)C)c(S(=O)(=O)Nc2ccnc(Nc3ccc(C#N)cc3)c2)c(C(C)C)c1	inactive
N#Cc1ccc(Nc2cc(NS(=O)(=O)c3ccc(C(F)(F)F)cc3)ccn2)cc1	inactive
N#Cc1ccc(Nc2nccc(NS(=O)(=O)c3cc(C(F)(F)F)cc(C(F)(F)F)c3)n2)cc1	inactive
Cc1cc(C)cc(S(=O)(=O)Nc2ccnc(Nc3ccc(C#N)cc3)n2)c1	inactive

###

In this section, each of the molecules is paired with its reported inhibition.
# Tested on: Human immunodeficiency virus 1
# assay.explanation: Inhibition of recombinant wild type HIV1 reverse transcriptase assessed as reduction in biotin-dUTP incorporation at 50 uM using poly(A)/oligo(dT)15 as template/primer by ELISA relative to control

smiles.repr	inhibition (%)
Cc1cc(C#N)cc(C)c1Oc1nc(Nc2ccc(C#N)cc2)nc(N)c1Br	93.3
Cc1ccnc2c1NC(=O)c1cccnc1N2C1CC1	88
Cc1ccc(S(=O)(=O)Nc2ccnc(Nc3ccc(C#N)cc3)c2)cc1	5.7
Cc1ccc(S(=O)(=O)Nc2ccnc(Nc3ccc(C#N)cc3)n2)cc1	41.5

###

# assay.explanation: Selectivity index, ratio of CC50 for human MT4 cells to EC50 for wild type HIV1 3B infected in human MT4 cells
# Type: toxicity, cell-based
# experimental.conditions: read-out: Ratio CC50/EC50

smiles.repr	result.modifier	selectivity ratio
N#Cc1ccc(Nc2cc(NS(=O)(=O)c3ccc(F)cc3)ccn2)cc1	<	1
Cc1cc(C)c(S(=O)(=O)Nc2ccnc(Nc3ccc(C#N)cc3)c2)c(C)c1	=	4
N#Cc1ccc(Nc2cc(NS(=O)(=O)c3ccc4ccccc4c3)ccn2)cc1	<	1
N#Cc1ccc(Nc2nccc(NS(=O)(=O)c3ccc(C(F)(F)F)cc3)n2)cc1	<	1
CC(C)c1cc(C(C)C)c(S(=O)(=O)Nc2ccnc(Nc3ccc(C#N)cc3)n2)c(C(C)C)c1	<	1
Cc1ccc(S(=O)(=O)Nc2ccnc(Nc3ccc(C#N)cc3)n2)cc1	=	80
N#Cc1ccc(Nc2nccc(NS(=O)(=O)c3cc(C(F)(F)F)cc(C(F)(F)F)c3)n2)cc1	<	1
Cc1cc(C)cc(S(=O)(=O)Nc2ccnc(Nc3ccc(C#N)cc3)n2)c1	=	28
N#Cc1ccc(Nc2nccc(NS(=O)(=O)c3ccc(F)cc3)n2)cc1	≤	4
O=c1[nH]cnc2c1ncn2[C@H]1CC[C@@H](CO)O1	>	3
N#Cc1ccc(Nc2cc(NS(=O)(=O)c3ccc(C#N)cc3)ccn2)cc1	<	1
CC(C)(C)c1ccc(S(=O)(=O)Nc2ccnc(Nc3ccc(C#N)cc3)n2)cc1	=	4
N#Cc1ccc(Nc2nccc(NS(=O)(=O)c3ccc4ccccc4c3)n2)cc1	=	2
Cc1cc(C)cc(S(=O)(=O)c2c(C(N)=O)[nH]c3ccc(Cl)cc23)c1	=	4260
Cc1ccc(S(=O)(=O)Nc2ccnc(Nc3ccc(C#N)cc3)c2)cc1	=	9
N#Cc1ccc(Nc2cc(NS(=O)(=O)c3cc(C(F)(F)F)cc(C(F)(F)F)c3)ccn2)cc1	<	1
Cc1cc(C#N)cc(C)c1Oc1nc(Nc2ccc(C#N)cc2)nc(N)c1Br	=	541
CC(C)(C)c1ccc(S(=O)(=O)Nc2ccnc(Nc3ccc(C#N)cc3)c2)cc1	=	6
N#Cc1ccc(Nc2nccc(NS(=O)(=O)c3ccc(C#N)cc3)n2)cc1	=	4
N#Cc1ccc(Nc2nccc(NS(=O)(=O)c3cc(F)cc(F)c3)n2)cc1	=	2

###

# Tested on: Human immunodeficiency virus 1
# assay.explanation: Antiviral activity against wild type HIV1 3B infected in human MT4 cells assessed as inhibition of virus-induced cytopathic effect after 5 days by MTT assay
# Assay type: functional, cell-based
# experimental.conditions: Human immunodeficiency virus 1, 3B, MT4, 120 h
parameter.measured: log10 EC50 (log10 of the value in µM)

smiles.repr	log10 EC50
Cc1cc(C)cc(S(=O)(=O)Nc2ccnc(Nc3ccc(C#N)cc3)n2)c1	0.79
Cc1cc(C)cc(S(=O)(=O)c2c(C(N)=O)[nH]c3ccc(Cl)cc23)c1	-2.59
Cc1ccc(S(=O)(=O)Nc2ccnc(Nc3ccc(C#N)cc3)n2)cc1	0.21
Cc1ccc(S(=O)(=O)Nc2ccnc(Nc3ccc(C#N)cc3)c2)cc1	0.17
N#Cc1ccc(Nc2nccc(NS(=O)(=O)c3ccc4ccccc4c3)n2)cc1	1.69
CC(C)(C)c1ccc(S(=O)(=O)Nc2ccnc(Nc3ccc(C#N)cc3)n2)cc1	0.88
N#Cc1ccc(Nc2nccc(NS(=O)(=O)c3cc(F)cc(F)c3)n2)cc1	1.67

###

# assay.explanation: Cytotoxicity against human MT4 cells assessed as reduction in cell viability after 5 days by MTT assay
# Format: cell-based

molecule	result.modifier	CC50 at 120 h, µM
N#Cc1ccc(Nc2cc(NS(=O)(=O)c3cc(F)cc(F)c3)ccn2)cc1	=	28.6
N#Cc1ccc(Nc2nccc(NS(=O)(=O)c3ccc(C#N)cc3)n2)cc1	=	159
CC(C)(C)c1ccc(S(=O)(=O)Nc2ccnc(Nc3ccc(C#N)cc3)n2)cc1	=	30.3
N#Cc1ccc(Nc2nccc(NS(=O)(=O)c3ccc(C(F)(F)F)cc3)n2)cc1	=	54.7
Cc1cc(C)c(S(=O)(=O)Nc2ccnc(Nc3ccc(C#N)cc3)n2)c(C)c1	=	4.4
Nc1ccn([C@@H]2CS[C@H](CO)O2)c(=O)n1 [LAMIVUDINE]	>	87.2
Cc1ccc(S(=O)(=O)Nc2ccnc(Nc3ccc(C#N)cc3)n2)cc1	=	130
N#Cc1ccc(Nc2cc(NS(=O)(=O)c3ccc(C(F)(F)F)cc3)ccn2)cc1	=	28
N#Cc1ccc(Nc2nccc(NS(=O)(=O)c3cc(C(F)(F)F)cc(C(F)(F)F)c3)n2)cc1	=	115
N#Cc1ccc(Nc2cc(NS(=O)(=O)c3ccc(C#N)cc3)ccn2)cc1	=	93.4
N#Cc1ccc(Nc2cc(NS(=O)(=O)c3cc(C(F)(F)F)cc(C(F)(F)F)c3)ccn2)cc1	=	62.2
CC(C)(C)c1ccc(S(=O)(=O)Nc2ccnc(Nc3ccc(C#N)cc3)c2)cc1	=	29.3
Cc1cc(C)c(S(=O)(=O)Nc2ccnc(Nc3ccc(C#N)cc3)c2)c(C)c1	=	22.2
N#Cc1ccc(Nc2nccc(NS(=O)(=O)c3cc(F)cc(F)c3)n2)cc1	=	93.9
N#Cc1ccc(Nc2nccc(NS(=O)(=O)c3ccc4ccccc4c3)n2)cc1	=	77.1
Cc1cc(C)cc(S(=O)(=O)Nc2ccnc(Nc3ccc(C#N)cc3)n2)c1	=	173
Cc1cc(C)cc(S(=O)(=O)c2c(C(N)=O)[nH]c3ccc(Cl)cc23)c1	=	11
N#Cc1ccc(Nc2cc(NS(=O)(=O)c3ccc(F)cc3)ccn2)cc1	=	6.12
CC(C)c1cc(C(C)C)c(S(=O)(=O)Nc2ccnc(Nc3ccc(C#N)cc3)n2)c(C(C)C)c1	=	17.4
N#Cc1ccc(Nc2cc(NS(=O)(=O)c3ccc4ccccc4c3)ccn2)cc1	=	30
